Biological target: >200 miscellaneous kinases
Test: Kinase selectivity panel
Conditions: read-out: IC50 values for most of >200 miscellaneous kinases
EXPERIMENTAL READOUT: IC50

Return IC50 for the following compound: CNC(=O)c1cc(Oc2ccc3nc(N[C@@H]4CCCC[C@H]4O)sc3c2)ccn1
> 10 µM

* * *

EXPERIMENTAL READOUT: IC50 (nM)
The answer is to be given in nM; state only the numeric part.

Report IC50 from CSF-1R (Homo sapiens) testing of CCNC(=O)c1cc(Oc2ccc3nc(N[C@@H]4CCCC[C@H]4O)sc3c2)ccn1 [Ig-B]
6

Report IC50 from CSF-1R (Homo sapiens) testing of CCCNC(=O)c1cc(Oc2ccc3nc(N[C@@H]4CCCC[C@H]4O)sc3c2)ccn1
8

Report IC50 from CSF-1R (Homo sapiens) testing of CCn1cc(-c2cc(Oc3ccc4nc(N[C@@H]5CCCC[C@H]5O)sc4c3)ccn2)cn1
3

Report IC50 from CSF-1R (Homo sapiens) testing of CCCn1cc(-c2cc(Oc3ccc4nc(N[C@@H]5CCCC[C@H]5O)sc4c3)ccn2)cn1 [Ih-C]
7

* * *

Test system: CSF-dependent cell proliferation
Test: CSF-dependent cell proliferation
Format: cell-based
Conditions: read-out: CSF-dependent cell proliferation IC-50
EXPERIMENTAL READOUT: IC50

Return IC50 for the following molecule: CNC(=O)c1cc(Oc2ccc3nc(N[C@@H]4CCCC[C@H]4O)sc3c2)ccn1 [BLZ945]
~67 nM

Cited source for all entries: patent US10537561B2
